# Tested on: Staphylococcus aureus
# protocol details: Antibacterial activity against methicillin-resistant Staphylococcus aureus ATCC 33591
# Assay type: functional
Non-standard residues stand in square brackets, D forms with d. Residues, ends and D or L forms follow the SMILES beside them. *: point of attachment. Phe(4-guanidino) = N=C(N)Nc1ccc(C[C@H](N)C(=O)O)cc1; hArg = N=C(N)NCCCC[C@H](N)C(=O)O; Orn = NCCC[C@H](N)C(=O)O; NHBn = c1ccc(CN*)cc1
Rule: MIC below 80 µM gives criterion met, anything at or above gives criterion not met.

compound | category label
N=C(N)NCCC[C@H](NC(=O)[C@H](Cc1c[nH]c2ccccc12)NC(=O)[C@@H](N)CCCNC(=N)N)C(=O)NCc1ccccc1 (H-Arg-Trp-Arg-NHBn) | criterion not met
NC(=O)[C@H](CCCN=C(N)N)NC(=O)[C@H](Cc1c[nH]c2ccccc12)NC(=O)[C@@H](N)CCCN=C(N)N (H-Arg-Trp-Arg-NH2) | criterion not met
N=C(N)NCCC[C@H](N)C(=O)N[C@@H](Cc1c[nH]c2ccccc12)C(=O)N[C@@H](CCCN)C(=O)NCc1ccccc1 (H-Arg-Trp-[Orn]-NHBn) | criterion met
N=C(N)NCCCC[C@H](NC(=O)[C@H](Cc1c[nH]c2ccccc12)NC(=O)[C@@H](N)CCCNC(=N)N)C(=O)NCc1ccccc1 (H-Arg-Trp-[hArg]-NHBn) | criterion met
N=C(N)NCCC[C@H](NC(=O)[C@H](Cc1ccccc1)NC(=O)[C@@H](N)CCCNC(=N)N)C(=O)NCc1ccccc1 (H-Arg-Phe-Arg-NHBn) | criterion not met

Please turn your attention to the following entry.
# input State whether 80 µM exceeds MIC recorded for N=C(N)NCCC[C@H](N)C(=O)N[C@@H](Cc1ccc(NC(=N)N)cc1)C(=O)N[C@@H](Cc1c[nH]c2ccccc12)C(=O)NCc1ccccc1 (H-Arg-[Phe(4-guanidino)]-Trp-NHBn) .
# output criterion met
